target: T1, KIR3DL2 recombinant protein (R&D Systems) (human, UniProt P43630 28-340); assay: regular kinetic method
T1 construct: Bought protein; also called rec KIR3DL2; recombinant KIR3DL2-Fc fusion protein; not shown: Fc part of the bought fusion protein; not described
T1 sequence (P43630 28-340 A108T): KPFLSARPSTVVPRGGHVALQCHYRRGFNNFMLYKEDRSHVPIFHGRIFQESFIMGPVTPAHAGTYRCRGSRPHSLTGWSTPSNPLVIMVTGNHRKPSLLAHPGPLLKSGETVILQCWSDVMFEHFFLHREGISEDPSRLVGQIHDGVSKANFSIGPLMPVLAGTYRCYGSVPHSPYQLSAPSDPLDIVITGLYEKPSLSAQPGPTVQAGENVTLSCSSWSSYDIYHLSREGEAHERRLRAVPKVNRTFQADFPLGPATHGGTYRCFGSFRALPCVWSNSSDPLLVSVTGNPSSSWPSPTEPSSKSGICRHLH
Catalogue of koff values
Give the value, in units of s⁻¹, as a plain number.

Record excerpt, results attached:
INSERT INTO results (binder, units_text, reported_measurement) VALUES
  ('Hum32-K32-15C11 (antibody, V domains shown, also called H3/L2) VH: EVQLVESGGGLVQPGGSLRLSCAASGFTFSDAWMDWVRQAPGKGLEWVAEIRSKANNHATYYAASVKGRFTISRDDSKNSVYLQMNSLKTEDTAVYYCTGGYYPVYWGQGTLVTVSS VL: DIQMTQSPSSLSASVGDRVTITCKASQDINKNIAWYQHKPGKAPKLLIHYTSTLQPGVPSRFSGSGSGTDFTFTISSLQPEDIATYYCLQYDNLLTFGGGTKVEIK', 's⁻¹', 0.00025),
  ('Hum12-K32-15C11 (antibody, V domains shown, also called H1/L2; H1-L2) VH: EVQLVESGGGLVQPGGSLRLSCAASGFTFSDAWMDWVRQAPGKGLEWVGRIRSKANNHATAYAASVKGRFTISRDDSKNSLYLQMNSLKTEDTAVYYCTGGYYPVYWGQGTLVTVSS VL: DIQMTQSPSSLSASVGDRVTITCKASQDINKNIAWYQHKPGKAPKLLIHYTSTLQPGVPSRFSGSGSGTDFTFTISSLQPEDIATYYCLQYDNLLTFGGGTKVEIK', 's⁻¹', 0.00132);

Q. Return reported koff; argument: Hum22-K32-15C11 (antibody, V domains shown, also called H2/L2) VH: EVQLVESGGGLVQPGGSLRLSCAASGFTFSDAWMDWVRQAPGKGLEWVGEIRSKANNHATYYAASVKGRFTISRDDSKNSLYLQMNSLKTEDTAVYYCTGGYYPVYWGQGTLVTVSS VL: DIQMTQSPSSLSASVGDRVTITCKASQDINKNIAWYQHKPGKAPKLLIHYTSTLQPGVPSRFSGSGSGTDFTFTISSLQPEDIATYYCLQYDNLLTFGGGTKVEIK
A. 0.000385

This collection of values is drawn from patent US20150291692A1.
